- methodSummary: Mean oral bioavailability in Swiss albino male mice at […] per compound (administered in a mixture of 5 compounds to 3 mice) assessed by LCMS/MS. Also: dose 2.5 mg/kg.
- Type: ADME, organism-based
- testConditions: male, Swiss albino, mouse, in vivo, read-out: Bioavailability
The reader will find reported bioavailability values listed item by item below.

{"smilesRepr": "CCc1nn2cnc(-c3ccc(F)c(C(F)(F)F)c3)cc2c1-c1c(F)cc(O)cc1F", "bioavailability [%]": 21.1}
{"smilesRepr": "COc1ccc(-c2c(C)nc3ccc(-c4cccc(C(F)(F)F)c4)cn23)cc1O", "bioavailability [%]": 1.48}
{"smilesRepr": "Fc1ccc(-c2cn3c(-c4ccc5[nH]ncc5c4F)c(C(F)(F)F)nc3cn2)cc1OC(F)(F)F", "bioavailability [%]": 81}
{"smilesRepr": "CC(C)c1nn2cnc(-c3ccc(F)c(C(F)(F)F)c3)cc2c1-c1c(F)cc(O)cc1F", "bioavailability [%]": 14.3}
{"smilesRepr": "Oc1ccc(-c2c(C(F)(F)F)nc3cnc(-c4cccc(C(F)(F)F)c4)cn23)c(F)c1", "bioavailability [%]": 58.4}
{"smilesRepr": "CC(C)c1nc2cnc(-c3cccc(C(F)(F)F)c3)cn2c1-c1ccc(OP(=O)(O)O)cc1F", "bioavailability [%]": 5.44}
{"smilesRepr": "CC(C)c1nc2cnc(-c3ccc(F)c(C(F)(F)F)c3)cn2c1-c1c(F)cc(OP(=O)(O)O)cc1F", "bioavailability [%]": 21.4}
{"smilesRepr": "Cc1nc2cnc(-c3cccc(C(F)(F)F)c3)cn2c1-c1c(F)cc(O)cc1F", "bioavailability [%]": 4}
{"smilesRepr": "CC(C)c1nc2cnc(-c3ccc(F)c(C(F)(F)F)c3)nc2n1-c1c(F)cc(O)cc1F", "bioavailability [%]": 45}
{"smilesRepr": "Fc1ccc(-c2cn3c(-c4ccc5[nH]ncc5c4F)c(C(F)(F)F)nc3cn2)cc1C1CC1", "bioavailability [%]": 135}
{"smilesRepr": "Cc1nc2cnc(-c3cccc(C(F)(F)C(F)(F)F)c3)cn2c1-c1c(F)cc(O)cc1F", "bioavailability [%]": 57.1}

---

- methodSummary: Mean plasma concentration at 4h in Swiss albino male mice at […] per compound (administered orally in a mixture of 5 compounds to 3 mice) assessed by LCMS/MS.
- Format: ADME, organism-based
- testConditions: mouse, po
Consider the cut-off 50 ng/mL. If the recorded concentration at 4 h is strictly smaller, the label is true (1); if not, the label is false (0).

{"smilesRepr": "COc1ccc(-c2c(C(C)C)nc3cnc(-c4cccc(C(F)(F)F)c4)cn23)cc1OP(=O)(O)O", "category": "true (1)"}
{"smilesRepr": "CC(C)c1nc2cnc(-c3ccc(F)c(C(F)(F)F)c3)nc2n1-c1c(F)cc(O)cc1F", "category": "false (0)"}
{"smilesRepr": "CC(C)c1nc2cnc(-c3ccc(F)c(C(F)(F)F)c3)cn2c1-c1c(F)cc(OP(=O)(O)O)cc1F", "category": "true (1)"}
{"smilesRepr": "Fc1ccc(-c2cn3c(-c4ccc5[nH]ncc5c4F)c(C(F)(F)F)nc3cn2)cc1C1CCC1", "category": "false (0)"}
{"smilesRepr": "CC(C)Oc1cc(-c2cn3c(-c4ccc5[nH]ncc5c4F)c(C(F)(F)F)nc3cn2)ccc1F", "category": "false (0)"}
{"smilesRepr": "CC(C)c1nn2cnc(-c3ccc(F)c(C(F)(F)F)c3)cc2c1-c1c(F)cc(O)cc1F", "category": "true (1)"}

All figures here come from ChEMBL document CHEMBL4651341.
